target entity: human recombinant 5-HT2C receptor (Homo sapiens, UniProt P28335)
Construct: purchased PerkinElmer
Sequence (P28335 33-458): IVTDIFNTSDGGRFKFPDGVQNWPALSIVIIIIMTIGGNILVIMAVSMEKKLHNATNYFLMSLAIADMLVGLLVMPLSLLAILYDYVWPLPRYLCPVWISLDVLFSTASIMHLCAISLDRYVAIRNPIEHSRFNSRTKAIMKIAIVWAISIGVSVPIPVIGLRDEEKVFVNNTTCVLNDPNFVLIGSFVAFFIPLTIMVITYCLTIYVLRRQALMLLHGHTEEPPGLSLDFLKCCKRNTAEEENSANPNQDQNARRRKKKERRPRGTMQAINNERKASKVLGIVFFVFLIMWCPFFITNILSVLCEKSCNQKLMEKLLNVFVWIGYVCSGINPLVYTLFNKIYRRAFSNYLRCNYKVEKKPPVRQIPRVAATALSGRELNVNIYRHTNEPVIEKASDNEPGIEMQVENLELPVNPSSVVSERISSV
measurement notes: Binding affinity for serotonin 5-HT2C receptor ([3H]Mesulergine)
condition parameters: CHO-K1 membranes, 1.3 nM [3H]Mesulergine; read-out: binding affinity (IC50) 5-HT2C
pIC50: −log10 of the molar value.
quantity: pIC50

[
  {
    "compound": "Cc1cccc(N2CCN(CC(O)CNc3ncnc4c3ncn4-c3ccc4c(c3)OCCO4)CC2)c1C (centres unmarked)",
    "value reported": 6.25
  },
  {
    "compound": "CCc1nc2c(NCCN3CCN(c4cccc(C)c4C)CC3)ncnc2n1-c1ccc(F)cc1",
    "value reported": 7.12
  },
  {
    "compound": "Cc1cccc(N2CCN(CCCNc3ncnc4c3nc(-c3ccccc3)n4-c3ccccc3)CC2)c1C",
    "value reported": 6.79
  },
  {
    "compound": "Cc1c(Cl)cccc1N1CCN(CCCNc2ncnc3c2nc(-c2ccccc2)n3-c2ccccc2)CC1",
    "value reported": 6.61
  },
  {
    "compound": "Cc1cccc(N2CCN(CCCNc3ncnc4c3nc(C)n4-c3ccc4c(c3)OCCO4)CC2)c1C",
    "value reported": 6.93
  },
  {
    "compound": "Cc1cccc(N2CCN(CCCNc3ncnc4c3nc(-c3cccs3)n4-c3ccccc3)CC2)c1C.Cl [Example 92, hydrochloride]",
    "value reported": 6.52
  },
  {
    "compound": "CCc1nc2c(NCCCN3CCN(c4cccc(C)c4C)CC3)ncnc2n1-c1ccc2c(c1)OCO2",
    "value reported": 6.48
  },
  {
    "compound": "Cc1cccc(N2CCN(CCCNc3ncnc4c3nc(-c3ccccc3)n4C)CC2)c1C",
    "value reported": 7.12
  }
]

====

target entity: human recombinant serotonin 5-HT2A receptor (Homo sapiens, UniProt P28223)
Construct: purchased PerkinElmer Life and Analytical Sciences, USA; host or cells: CHO-K1 cells
Sequence (P28223 whole entry): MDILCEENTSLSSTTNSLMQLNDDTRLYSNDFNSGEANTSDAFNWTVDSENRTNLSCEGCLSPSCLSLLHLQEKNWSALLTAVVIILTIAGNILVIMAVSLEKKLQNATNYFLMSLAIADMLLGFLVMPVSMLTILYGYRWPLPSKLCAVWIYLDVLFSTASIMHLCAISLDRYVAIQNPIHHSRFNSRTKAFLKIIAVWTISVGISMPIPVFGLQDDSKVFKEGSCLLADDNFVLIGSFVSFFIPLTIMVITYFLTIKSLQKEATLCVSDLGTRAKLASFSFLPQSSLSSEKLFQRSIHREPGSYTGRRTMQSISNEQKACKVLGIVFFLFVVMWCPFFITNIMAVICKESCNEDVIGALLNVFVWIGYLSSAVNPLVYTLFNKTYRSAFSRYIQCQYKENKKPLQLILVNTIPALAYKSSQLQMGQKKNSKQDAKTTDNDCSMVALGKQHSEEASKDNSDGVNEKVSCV
measurement notes: Binding affinity for serotonin 5-HT2A receptor ([3H]Ketanserin)
condition parameters: CHO-K1 cells, 1 nM [3H]Ketanserin; read-out: binding affinity (IC50) 5-HT2A
Where a name gives a salt, the structure may show the parent alone.

[
  {
    "compound": "Cc1cccc(N2CCN(CCCNc3ncnc4c3nc(-c3cccs3)n4-c3ccccc3)CC2)c1C.Cl [Example 92, hydrochloride]",
    "IC50 (nM)": 17
  },
  {
    "compound": "CSc1ccc(-n2c(C)nc3c(NCCN4CCN(c5cccc(C)c5C)CC4)ncnc32)cc1 [Example 85, hydrochloride]",
    "IC50 (nM)": 9.6
  },
  {
    "compound": "Cc1cccc(N2CCN(CCCNc3ncnc4c3nc(C)n4-c3ccc(F)cc3)CC2)c1C",
    "IC50 (nM)": 47
  },
  {
    "compound": "Cc1cccc(N2CCN(CCCNc3ncnc4c3nc(-c3ccccc3)n4-c3ccccc3)CC2)c1C",
    "IC50 (nM)": 32
  }
]

====

Readings of pIC50 for the listed molecules
target entity: human serotonin transporter (Homo sapiens)
Construct: purchased PerkinElmer; host or cells: HEK-293 cells
Sequence (P31645 whole entry): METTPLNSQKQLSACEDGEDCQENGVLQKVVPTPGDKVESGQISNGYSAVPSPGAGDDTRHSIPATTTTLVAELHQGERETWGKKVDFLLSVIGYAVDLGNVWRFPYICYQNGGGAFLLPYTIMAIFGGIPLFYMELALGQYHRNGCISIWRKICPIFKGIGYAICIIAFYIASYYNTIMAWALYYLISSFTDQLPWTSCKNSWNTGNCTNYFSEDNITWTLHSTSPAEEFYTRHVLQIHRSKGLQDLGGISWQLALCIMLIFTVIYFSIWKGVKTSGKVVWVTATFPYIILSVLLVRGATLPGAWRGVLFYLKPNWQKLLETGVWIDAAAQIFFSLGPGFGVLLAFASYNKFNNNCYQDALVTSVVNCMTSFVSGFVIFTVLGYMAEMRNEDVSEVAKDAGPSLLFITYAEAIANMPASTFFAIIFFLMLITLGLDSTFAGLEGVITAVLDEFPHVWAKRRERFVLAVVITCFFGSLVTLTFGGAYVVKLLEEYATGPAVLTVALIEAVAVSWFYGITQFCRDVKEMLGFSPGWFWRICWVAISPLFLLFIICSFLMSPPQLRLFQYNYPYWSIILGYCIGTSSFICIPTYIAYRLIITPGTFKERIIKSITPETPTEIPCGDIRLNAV
measurement notes: Binding affinity for serotonin transporter ([3H]Imipramine)
condition parameters: HEK-293 membrane, 2 nM [3H]Imipramine; read-out: binding affinity Serotonin Transporter
pIC50: −log10 of the molar value. Where a name gives a salt, the structure may show the parent alone.
quantity: pIC50

[
  {
    "molecule": "CSc1ccc(-n2c(C)nc3c(NCCN4CCN(c5cccc(C)c5C)CC4)ncnc32)cc1 [Example 85, hydrochloride]",
    "value reported": 6.44
  },
  {
    "molecule": "Cc1cccc(N2CCN(CCCNc3ncnc4c3nc(-c3ccccc3)n4-c3ccc(F)cc3)CC2)c1C",
    "value reported": 7.17
  },
  {
    "molecule": "Cc1cccc(N2CCN(CCCNc3ncnc4c3nc(C)n4C)CC2)c1C",
    "value reported": 7.07
  },
  {
    "molecule": "CCCc1nc2c(NCCN3CCN(c4cccc(C)c4C)CC3)ncnc2n1-c1ccccc1",
    "value reported": 7.03
  },
  {
    "molecule": "CCc1nc2c(NCCCN3CCN(c4cccc(C)c4C)CC3)ncnc2n1-c1ccc(F)cc1",
    "value reported": 7.72
  },
  {
    "molecule": "Cc1cccc(N2CCN(CC(O)CNc3ncnc4c3nc(C(C)(C)C)n4C)CC2)c1C (centres unmarked)",
    "value reported": 7.72
  },
  {
    "molecule": "Cc1cccc(N2CCN(CCCNc3ncnc4c3ncn4-c3ccc4c(c3)OCCO4)CC2)c1C",
    "value reported": 8.15
  },
  {
    "molecule": "CSc1ccc(-n2c(C)nc3c(NCCCN4CCN(c5cccc(C)c5C)CC4)ncnc32)cc1.Cl [Example 86, hydrochloride]",
    "value reported": 7.19
  },
  {
    "molecule": "Cc1cccc(N2CCN(CCCNc3ncnc4c3nc(C)n4-c3ccc4c(c3)OCO4)CC2)c1C",
    "value reported": 8.40
  },
  {
    "molecule": "Cc1cccc(N2CCN(CCCNc3ncnc4c3nc(-c3ccccc3)n4C)CC2)c1C",
    "value reported": 6.97
  },
  {
    "molecule": "Cc1cccc(N2CCN(CCCNc3ncnc4c3nc(-c3cccs3)n4-c3ccccc3)CC2)c1C.Cl [Example 92, hydrochloride]",
    "value reported": 7.41
  },
  {
    "molecule": "Cc1cccc(N2CCN(CCCNc3ncnc4c3nc(C)n4-c3ccc(C(F)(F)F)cc3)CC2)c1C",
    "value reported": 6.89
  },
  {
    "molecule": "Cc1c(Cl)cccc1N1CCN(CCCNc2ncnc3c2nc(-c2ccccc2)n3-c2ccccc2)CC1",
    "value reported": 7.02
  },
  {
    "molecule": "Cc1cccc(N2CCN(CCNc3ncnc4c3nc(-c3cccs3)n4-c3ccccc3)CC2)c1C.Cl [Example 91, hydrochloride]",
    "value reported": 6.50
  },
  {
    "molecule": "Cc1cccc(N2CCN(CCCNc3ncnc4c3nc(C)n4-c3ccc(Cl)cc3)CC2)c1C",
    "value reported": 7.36
  },
  {
    "molecule": "Cc1cccc(N2CCN(CC(O)CNc3ncnc4c3nc(C)n4-c3ccc4c(c3)OCO4)CC2)c1C (centres unmarked)",
    "value reported": 7.57
  },
  {
    "molecule": "Cc1cccc(N2CCN(CCCNc3ncnc4c3ncn4-c3ccc4c(c3)OCO4)CC2)c1C",
    "value reported": 8.22
  },
  {
    "molecule": "Cc1cccc(N2CCN(CCCNc3ncnc4c3nc(-c3ccccc3)n4-c3ccccc3)CC2)c1C",
    "value reported": 7.12
  },
  {
    "molecule": "Cc1cccc(N2CCN(CCNc3ncnc4c3nc(-c3ccccc3)n4-c3ccccc3)CC2)c1C",
    "value reported": 6.24
  },
  {
    "molecule": "CCc1nc2c(NCCCN3CCN(c4cccc(C)c4C)CC3)ncnc2n1-c1ccc2c(c1)OCCO2",
    "value reported": 7.31
  },
  {
    "molecule": "Cc1cccc(N2CCN(CCNc3ncnc4c3nc(C)n4-c3ccc(F)cc3)CC2)c1C",
    "value reported": 6.29
  },
  {
    "molecule": "Cc1cccc(N2CCN(CCCNc3ncnc4c3nc(C)n4-c3ccc4c(c3)OCCO4)CC2)c1C",
    "value reported": 7.80
  },
  {
    "molecule": "Cc1cccc(N2CCN(CCCCNc3ncnc4c3nc(-c3ccccc3)n4-c3ccccc3)CC2)c1C",
    "value reported": 6.84
  },
  {
    "molecule": "CCc1nc2c(NCCN3CCN(c4cccc(C)c4C)CC3)ncnc2n1-c1ccccc1",
    "value reported": 6.79
  },
  {
    "molecule": "Cc1cccc(N2CCN(CC(O)CNc3ncnc4c3nc(C)n4-c3ccc4c(c3)OCCO4)CC2)c1C (centres unmarked)",
    "value reported": 7.19
  },
  {
    "molecule": "Cc1cccc(N2CCN(CC(O)CNc3ncnc4c3ncn4-c3ccc4c(c3)OCCO4)CC2)c1C (centres unmarked)",
    "value reported": 8.10
  },
  {
    "molecule": "CCc1nc2c(NCCN3CCN(c4cccc(C)c4C)CC3)ncnc2n1-c1ccc(F)cc1",
    "value reported": 6.84
  },
  {
    "molecule": "Cc1cccc(N2CCN(CCCNc3ncnc4c3nc(C)n4-c3ccc(F)cc3)CC2)c1C",
    "value reported": 7.21
  },
  {
    "molecule": "Cc1cccc(N2CCN(CCCNc3ncnc4c3ncn4-c3ccccc3)CC2)c1C",
    "value reported": 7.46
  }
]
